Here, each record is paired with measured IC50 data.
STUDY SYSTEM: His-EBNA1 (DNA binding domain of EBNA1, amino acids 459-607) (Epstein-Barr virus, UniProt P03211)
Sequence (P03211 459-607): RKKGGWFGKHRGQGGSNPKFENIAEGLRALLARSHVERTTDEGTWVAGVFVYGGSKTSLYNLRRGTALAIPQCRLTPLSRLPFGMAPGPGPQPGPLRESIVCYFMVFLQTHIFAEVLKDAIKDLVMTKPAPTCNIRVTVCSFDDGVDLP

O=C(O)c1cccc(C#Cc2ccc(CN3CCC(CCO)CC3)cc2)c1-c1ccc2cc[nH]c2c1; 1 to 10 µM
O=C(O)c1cccc(C#Cc2ccc(CN3CCc4ccccc4C3)cc2)c1-c1ccc2cc[nH]c2c1; 1 to 10 µM
O=C(O)c1cccc(C#Cc2ccc(CN3CCC(O)CC3)cc2)c1-c1ccc2cc[nH]c2c1; 10 to 100 µM

Ask: Query (molecule): O=C(O)c1cccc(C#Cc2ccc3nc(C(F)(F)F)[nH]c(=O)c3c2)c1-c1ccc2cc[nH]c2c1 ; field requested: IC50
Reply: 1 to 10 µM

Ask: Further, for CC(=O)N1C2CCC1CC(c1ccc(C#Cc3cccc(C(=O)O)c3-c3ccc4cc[nH]c4c3)cc1)C2 (stereo not shown) ?
Reply: 10 to 100 µM

Ask: Next record, please: CC(C)S(=O)(=O)N1CCc2cc(C#Cc3cccc(C(=O)O)c3-c3ccc4cc[nH]c4c3)ccc2C1
Reply: 1 to 10 µM

Ask: Now give it for CS(=O)(=O)NC(=O)c1cccc(C#Cc2ccc(COC3CCOCC3)cc2)c1-c1ccc2cc[nH]c2c1 too.
Reply: 10 to 100 µM

====

pIC50: −log10 of the molar value.
Reported pIC50, His-EBNA1 (DNA binding domain of EBNA1, amino acids 459-607) (Epstein-Barr virus).

Look over these answered cases.
CN(C)CCN(C)Cc1ccc(C#Cc2cccc(C(=O)O)c2-c2ccc3cc[nH]c3c2)cc1; 4.00 to 5.00
O=C(O)c1cccc(C#Cc2ccc(COC3CCS(=O)(=O)CC3)cc2)c1-c1ccc2cc[nH]c2c1; 4.00 to 5.00
COC1CCN(Cc2ccc(C#Cc3cccc(C(=O)O)c3-c3ccc4cc[nH]c4c3)cc2)CC1; 4.00 to 5.00
NC(=O)c1cccc(OCc2ccc(C#Cc3cccc(C(=O)O)c3-c3ccc4cc[nH]c4c3)cc2)c1; 5.00 to 6.00
CS(=O)(=O)N1CC(N2Cc3ccc(C#Cc4cccc(C(=O)O)c4-c4ccc5cc[nH]c5c4)cc3C2)C1; 5.00 to 6.00

Ask: If you can, please state the reported pIC50 value of O=C(O)c1cccc(C#Cc2ccc(CN3CC(O)C3)cc2)c1-c1ccc2cc[nH]c2c1 .
Reply: 4.00 to 5.00

Ask: Cool, now O=C(O)c1cccc(C#Cc2cnc3c(ccn3CCCN3CCOCC3)c2)c1-c1ccc2cc[nH]c2c1
Reply: 5.00 to 6.00

Ask: Input O=C(O)c1cccc(C#Cc2ccc(COc3ccc(Cl)c(Cl)c3)cc2)c1-c1ccc2cc[nH]c2c1
Reply: 5.00 to 6.00

====

STUDY SYSTEM: His-EBNA1 (DNA binding domain of EBNA1, amino acids 459-607) (Epstein-Barr virus, UniProt P03211)
ENDPOINT LABEL: IC50

O=C(O)c1cccc(C#Cc2ccc3ccn(CCN4CCOCC4)c3c2)c1-c1ccc2cc[nH]c2c1 [Entry 1]; 10 to 100 µM
CS(=O)(=O)N1CCC(Cn2ccc3cc(C#Cc4cccc(C(=O)O)c4-c4ccc5cc[nH]c5c4)ccc32)CC1 [Entry 19]; 1 to 10 µM
CS(=O)(=O)Nc1nc(-c2cccc(C#Cc3cccc(C(=O)O)c3-c3ccc4cc[nH]c4c3)c2)cs1 [Entry 132]; < 1 µM
CCS(=O)(=O)N1CCN(Cc2ccc(C#Cc3cccc(C(=O)O)c3-c3ccc4cc[nH]c4c3)cc2)CC1 [Entry 183]; 10 to 100 µM
O=C(O)c1cccc(C#Cc2ccc(CN3CCN(C(=O)C4CC4)CC3)cc2)c1-c1ccc2cc[nH]c2c1 [Entry 166]; 1 to 10 µM

Ask: What does the data say about its IC50? Entry: CCC(=O)N1CCc2ccc(C#Cc3cccc(C(=O)O)c3-c3ccc4cc[nH]c4c3)cc2C1 [Entry 75]
Reply: 10 to 100 µM

Ask: Field entry: O=C(O)c1cccc(C#Cc2ccc3cc(CN4CCOCC4)[nH]c3c2)c1-c1ccc2cc[nH]c2c1 [Entry 33]
Reply: 10 to 100 µM

Each recorded value in this set is attributed to patent US10442763B2.
